Cited source: the RNAGym collection of RNA variant scans (doi:10.1073/pnas.2313332121)

B1: TPR t1 (parent)
chain: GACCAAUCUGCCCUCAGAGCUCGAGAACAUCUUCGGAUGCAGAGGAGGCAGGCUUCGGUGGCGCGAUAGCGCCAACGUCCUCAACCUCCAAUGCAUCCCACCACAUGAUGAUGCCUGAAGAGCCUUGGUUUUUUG

Variants of: B1
experimental-protocol: polymerase ribozyme fitness, log enrichment relative to wild type (log ratio); higher = more active; in vitro selection for triplet polymerase activity
Could you please report measured polymerase ribozyme fitness (log ratio) for the items listed next?
Numbers only.

Illustrative cases are given below, each with its answer.
| mutation-annotation | polymerase ribozyme fitness (log ratio) |
| --- | --- |
| C4U C11A G51C | -4.83 |
| G117U G127U | -4.77 |
| G25A G60U G117A | -7.98 |
| C11A G71A G77A C82G | -3.86 |
| C20U A26G A43G C53G C62A C82U | -5.29 |

For each of the items listed, what is its polymerase ribozyme fitness (log ratio)?
1. G45U U78G C88U
2. G39A A66C C86G
3. G10A U14A C56G
4. A83G A90G
5. C99A A121G
6. C70G C94U
7. U14G U129G

Reply text:
1: -1.1; 2: -2.29; 3: -3.83; 4: -0.465; 5: -4.75; 6: -3; 7: -3.21

Inquiry: Name the recorded polymerase ribozyme fitness (log ratio) for A18U C85G .
Reply text: -3.16
